Measured values drawn from patent US20220315624A1 for this set.

- System: E. coli ATCC 25922
- procedure.summary: MIC broth microdilution
- Type: cell-based
- particulars: Escherichia coli, ATCC25922; E. coli ATCC 25922; CAMHB; read-out: MIC
property.label: MIC

Ask | What value of MIC has been recorded for this entry: C=C(NC(=O)c1csc(C2=N[C@@H]3c4csc(n4)[C@H]4NC(=O)c5csc(n5)[C@H]([C@](C)(O)[C@@H](C)O)NC(=O)C5CSC(=N5)/C(=C/C)NC(=O)[C@H]([C@@H](C)O)NC(=O)c5csc(n5)[C@]3(CC2)NC(=O)[C@H](C)NC(=O)C(=C)NC(=O)[C@H](C)NC(=O)[C@H]([C@@H](C)CC)N[C@@H]2C=Cc3c([C@H](C)O)cc(nc3[C@H]2O)C(=O)O[C@@H]4C)n1)C(=O)NC(=CNC(=O)c1cccc(/C=N/OC2O[C@H](CO)[C@@H](O)[C@H](O)[C@H]2O)c1)C(N)=O (stereo partly shown)
Reply | > 64 µg/mL
